# ASSAYED SYSTEM: EPHB2 (UniProt P29323)
# Sequence (P29323 whole entry, looked up): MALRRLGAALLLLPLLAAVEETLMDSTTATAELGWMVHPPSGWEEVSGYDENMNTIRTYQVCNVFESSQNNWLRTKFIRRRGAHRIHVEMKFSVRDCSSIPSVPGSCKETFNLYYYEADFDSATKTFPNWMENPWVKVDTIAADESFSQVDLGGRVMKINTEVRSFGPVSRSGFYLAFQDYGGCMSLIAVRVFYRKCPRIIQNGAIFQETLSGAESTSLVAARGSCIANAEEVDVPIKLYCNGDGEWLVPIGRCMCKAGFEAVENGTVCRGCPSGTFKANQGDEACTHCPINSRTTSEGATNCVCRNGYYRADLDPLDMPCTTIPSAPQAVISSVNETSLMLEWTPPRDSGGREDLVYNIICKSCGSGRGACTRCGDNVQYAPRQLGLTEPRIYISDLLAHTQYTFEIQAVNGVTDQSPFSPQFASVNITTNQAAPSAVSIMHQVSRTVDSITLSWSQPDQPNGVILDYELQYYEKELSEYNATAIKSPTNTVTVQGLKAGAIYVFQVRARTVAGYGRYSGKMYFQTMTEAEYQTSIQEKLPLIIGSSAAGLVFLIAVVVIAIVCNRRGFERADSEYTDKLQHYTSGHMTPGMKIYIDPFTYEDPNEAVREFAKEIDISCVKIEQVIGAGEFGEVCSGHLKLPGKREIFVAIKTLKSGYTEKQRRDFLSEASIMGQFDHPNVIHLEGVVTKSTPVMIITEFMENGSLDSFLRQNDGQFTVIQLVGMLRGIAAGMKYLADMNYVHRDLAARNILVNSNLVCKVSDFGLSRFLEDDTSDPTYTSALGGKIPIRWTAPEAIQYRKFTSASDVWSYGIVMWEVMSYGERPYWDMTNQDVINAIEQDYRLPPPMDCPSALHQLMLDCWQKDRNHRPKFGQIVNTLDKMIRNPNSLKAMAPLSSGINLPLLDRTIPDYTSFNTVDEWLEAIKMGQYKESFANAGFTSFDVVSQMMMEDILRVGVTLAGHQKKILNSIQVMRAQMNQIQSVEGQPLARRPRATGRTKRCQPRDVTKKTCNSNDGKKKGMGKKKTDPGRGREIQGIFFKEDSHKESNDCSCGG
# METHOD DESCRIPTION: phosphorylation enrichment, bacterial display (enrichment ratio); higher = better substrate or ligand; peptides without Tyr show the background
READOUT LABEL: phosphorylation enrichment
Keep it simple and answer with nothing but the number.

Example results:
* WVYNHYRWIIW [BRCA2_Y2624] | 0.597
* PGIRMYRVQYN [LRFN1_Y454_Q455R] | 0.586

# evaluate next
Data point: TEVIWYKGDEE ; phosphorylation enrichment = 0.606

====

Known phosphorylation enrichment of a selection of sequences
# ASSAYED SYSTEM: FGFR3 (UniProt P22607)
# Sequence (P22607 whole entry, looked up): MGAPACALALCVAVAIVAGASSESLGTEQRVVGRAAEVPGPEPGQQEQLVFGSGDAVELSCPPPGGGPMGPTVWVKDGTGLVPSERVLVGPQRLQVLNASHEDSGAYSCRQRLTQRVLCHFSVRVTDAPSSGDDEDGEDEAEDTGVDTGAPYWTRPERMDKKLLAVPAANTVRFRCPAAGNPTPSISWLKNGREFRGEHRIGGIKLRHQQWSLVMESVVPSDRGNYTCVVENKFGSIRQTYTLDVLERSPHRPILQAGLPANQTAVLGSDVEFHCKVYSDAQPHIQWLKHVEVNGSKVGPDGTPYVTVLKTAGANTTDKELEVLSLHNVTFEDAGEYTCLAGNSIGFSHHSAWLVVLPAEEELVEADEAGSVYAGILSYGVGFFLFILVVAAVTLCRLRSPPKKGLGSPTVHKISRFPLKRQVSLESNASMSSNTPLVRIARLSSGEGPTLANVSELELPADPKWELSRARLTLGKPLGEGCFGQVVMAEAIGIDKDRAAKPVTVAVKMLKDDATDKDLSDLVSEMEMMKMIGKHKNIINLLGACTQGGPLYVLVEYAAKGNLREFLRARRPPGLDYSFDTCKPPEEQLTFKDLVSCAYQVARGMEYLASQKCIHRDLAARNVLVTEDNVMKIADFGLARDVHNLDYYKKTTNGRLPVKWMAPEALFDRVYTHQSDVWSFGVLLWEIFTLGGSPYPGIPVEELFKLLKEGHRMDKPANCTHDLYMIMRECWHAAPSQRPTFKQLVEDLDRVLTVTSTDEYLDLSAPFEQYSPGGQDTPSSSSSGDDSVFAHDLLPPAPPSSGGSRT
# METHOD DESCRIPTION: phosphorylation enrichment, bacterial display (enrichment ratio); higher = better substrate or ligand; peptides without Tyr show the background
Lab note: record just the number, no unit beside it.

// worked examples, phosphorylation enrichment included
- GSRGKYFSGFR [ATM_Y332_S333F]: 0.412
- IHFAIYLLKFS [ARMC9_Y107_YF]: 0.684
- FAELVYTGFWH [ASS1_Y322]: 1.85

Form field phosphorylation enrichment, entry FYNSEYGELSE [FLT4_Y1337] : 0.932

Measured phosphorylation enrichment of DKNSSYFADWF [TUBB8_Y340_L345F] : 1.62

So for MGSYNYLGFPR [SPTLC2_Y178_A182P] , the logged phosphorylation enrichment turned out to be 1.48

Field phosphorylation enrichment (entry GKGGSYSQAAS [HLA-B_Y344_C349S] ) reads 0.52

For QRRYLYYYSYL [PTEN_Y176_V175L] the sequence record lists phosphorylation enrichment as 3.52

// phosphorylation enrichment lookup, sequence = WQQQSYLDYGI [CTNNB1_Y30_S33Y] , result: 0.827

So for SGEKPYKCSVC [ZNF543_Y283_E287V] , the logged phosphorylation enrichment turned out to be 0.355

Entry GKTQQYECKWF [BCR_Y751_D752E_YF] , phosphorylation enrichment reported as 0.627

phosphorylation enrichment in this record for LKTNCYNNGKD [DNMT3B_Y404] : 1.12

// ISTAGYSIPEL [EDAR_Y406] : phosphorylation enrichment value = 0.697

====

# ASSAYED SYSTEM: FGFR3 (UniProt P22607)
# METHOD DESCRIPTION: phosphorylation enrichment, bacterial display (enrichment ratio); higher = better substrate or ligand; peptides without Tyr show the background
READOUT LABEL: phosphorylation enrichment
Answer with a bare number; do not write a unit.

Some entries whose results are on file:
- KGIQLYDTPYE [SHB_Y297]: 0.695
- TGDFGYRAPGF [TNS2_Y668_YF]: 0.601
- AKIDGYIISYR: 0.684
- YSGDCYRIQGR [DDR2_Y741_Y740C]: 0.715
- YAGRDYSLDEF [MYOF_Y1705_G1701A]: 0.686
- WVYNHYRWIIW [BRCA2_Y2624]: 0.702

Turning now to a further sequence:
Kindly note the recorded phosphorylation enrichment for PPSLSYLSFEG [EXOSC3_Y143_A139P] , which is 0.713

====

# ASSAYED SYSTEM: c-Src SH2;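 also: peptide library displayed on the E. coli surface as eCPX fusions, selected cells deep-sequenced, score is each peptide's frequency after selection divided by its frequency in the input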
# METHOD DESCRIPTION: SH2 binding enrichment of the phosphorylated peptide, bacterial display (enrichment ratio); higher = better substrate or ligand; peptides without Tyr show the background
READOUT LABEL: SH2 binding enrichment
Kindly provide the number alone.

- MARDIYQASYY [LTK_Y672_R673Q]: 0.919
- CERLPYDASKW [FLT1_Y815]: 0.632
- FTHSDYQFSQR [PKP2_Y166_YF]: 0.62
- QTEAPYRFIFM [PTPN11_Y511_Q510P_YF]: 0.367
- YSTDYYRVGGH [NTRK2_Y707]: 0.691

The reported SH2 binding enrichment of the sequence KGELRYMHSPV [ABCD1_Y281_R285P] was 0.533

Briefly, SH2 binding enrichment measured for SVVLPYEPPEV [TP53_Y220_V218L] : 0.963

Consider EEGEEYGGGGG [TUBA1A_Y451] . Its measured SH2 binding enrichment is 0.6

Form: sequence = ISIFFYAKGQP [MPZ_Y82_H81Y_YF] ; SH2 binding enrichment = 0.406
